EC50: recorded values
target-of-assay: human MC1R (Homo sapiens)
Construct: expressed in transfected cells
Sequence (Q01726 whole entry): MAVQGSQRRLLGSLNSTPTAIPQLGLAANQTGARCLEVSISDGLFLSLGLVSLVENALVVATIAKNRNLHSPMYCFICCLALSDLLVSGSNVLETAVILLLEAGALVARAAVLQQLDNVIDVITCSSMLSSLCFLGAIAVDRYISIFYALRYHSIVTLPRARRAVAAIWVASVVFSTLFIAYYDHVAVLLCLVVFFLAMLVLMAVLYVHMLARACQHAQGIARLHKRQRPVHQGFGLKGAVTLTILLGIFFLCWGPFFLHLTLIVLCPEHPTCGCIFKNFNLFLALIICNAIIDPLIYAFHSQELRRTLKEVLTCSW
test-description: Functional cAMP assay (CisBio HTRF) in BHK cells expressing human MC1R
Format: cell-based
Positions of bridges follow the written chain, without caps; N, C: chain ends. Non-standard residues stand in square brackets, D forms with d. Residues, ends and D or L forms follow the SMILES beside them. Lys(CH2CO2H)2 = N[C@@H](CCCCN(CC(=O)O)CC(=O)O)C(=O)O; Thz = O=C(O)[C@@H]1CSCN1

>  <molecule>
C[C@@H]1NC(=O)[C@H](C)NC(=O)[C@@H]2CSSC[C@H](NC(=O)[C@H](Cc3c[nH]c4ccccc34)NC(=O)[C@H](C)NC(=O)[C@H](CCCCN(CC(=O)O)CC(=O)O)NC1=O)C(=O)N1CSC[C@H]1C(=O)N[C@@H](Cc1c[nH]cn1)C(=O)N[C@H](Cc1ccccc1)C(=O)N[C@@H](Cc1c[nH]cn1)C(=O)N[C@@H](Cc1c[nH]c3ccccc13)C(=O)N2 [Chem. 104] (cyclo(AA[Lys(CH2CO2H)2]AWC[Thz]H[dF]HWC); disulfide 6-12)

>  <target-of-assay>
human MC1R (Homo sapiens)

>  <readout-qualifier>
>

>  <EC50 (nM)>
100

$$$$
>  <molecule>
C[C@@H]1NC(=O)[C@H](C)NC(=O)[C@@H]2CSSC[C@H](NC(=O)[C@H](CCCNC(=N)N)NC(=O)[C@H](C)NC(=O)[C@@H](C)NC1=O)C(=O)N[C@@H](C)C(=O)N[C@@H](Cc1c[nH]cn1)C(=O)N[C@H](Cc1ccccc1)C(=O)N[C@@H](CCCNC(=N)N)C(=O)N[C@@H](Cc1c[nH]c3ccccc13)C(=O)N2 [Chem. 90] (cyclo(AA[dA]ARCAH[dF]RWC); disulfide 6-12)

>  <target-of-assay>
human MC1R (Homo sapiens)

>  <readout-qualifier>
=

>  <EC50 (nM)>
0.65

$$$$
>  <molecule>
C[C@@H]1NC(=O)[C@@H]2CSSC[C@H](NC(=O)[C@H](Cc3c[nH]c4ccccc34)NC(=O)[C@H](CCCNC(=N)N)NC(=O)[C@@H](Cc3ccccc3)NC(=O)[C@H](Cc3c[nH]cn3)NC1=O)C(=O)N[C@@H](C)C(=O)N[C@@H](CCC(=O)O)C(=O)N[C@@H](CCC(=O)O)C(=O)N[C@@H](CCC(=O)O)C(=O)N[C@@H](Cc1c[nH]c3ccccc13)C(=O)N2 [Chem. 44] (cyclo(AEEEWCAH[dF]RWC); disulfide 6-12)

>  <target-of-assay>
human MC1R (Homo sapiens)

>  <readout-qualifier>
=

>  <EC50 (nM)>
31.9

$$$$
>  <molecule>
C[C@@H]1NC(=O)[C@H](CCC(=O)O)NC(=O)[C@H](CCC(=O)O)NC(=O)[C@H](C)NC(=O)[C@@H]2CSSC[C@H](NC(=O)[C@H](Cc3c[nH]c4ccccc34)NC1=O)C(=O)N1CSC[C@H]1C(=O)N[C@@H](Cc1c[nH]cn1)C(=O)N[C@H](Cc1ccccc1)C(=O)N[C@@H](Cc1c[nH]cn1)C(=O)N[C@@H](Cc1c[nH]c3ccccc13)C(=O)N2 [Chem. 105] (cyclo(AEEAWC[Thz]H[dF]HWC); disulfide 6-12)

>  <target-of-assay>
human MC1R (Homo sapiens)

>  <readout-qualifier>
>

>  <EC50 (nM)>
100

$$$$
